target: ScAbp1; experiment: SPOT peptide array binding signal intensity (averaged, normalized) (arbitrary units (background-subtracted, floor 0; scale differs between SH3 domains)); higher = stronger binding of the SH3 domain to the peptide
Measured SPOT peptide array binding signal intensity accompanies every entry in the list below.
Give the figure by itself; no unit, no explanation.

Some binders with known SPOT peptide array binding signal intensity results, for comparison:
| binder | value |
| --- | --- |
| RKNRAPPQRPRFNRE | 369 |
| LRIKRKPVQTFFEFI | 355 |
| HKVLRPFLLRRLKKD | 271 |
| RPPRPPPKPLHLRTE | 3670 |
| ATNVPVAPPPPPASL | 1 |
| NRARYLPQNPDIIAG | 7.5 |
| KRRTSLFPWLHKPGI | 19 |
| RRRDFGAPANKRPRR | 79 |
| DKSRPPRPPPKPLHL | 516 |
| KKAPPPVVKPKPRNF | 7880 |

Entry FPGKKSPRLPHRNKK — recorded SPOT peptide array binding signal intensity = 918

Entry LKHGWKPLRPIKLIS — recorded SPOT peptide array binding signal intensity = 296

Entry PSRRAPLQLPQLVNK — recorded SPOT peptide array binding signal intensity = 13

Entry RRSKSLPTTPGIRSG — recorded SPOT peptide array binding signal intensity = 261

Entry RRARRQMGIPTISQV — recorded SPOT peptide array binding signal intensity = 152

Entry AGKRRLPLVRFKASD — recorded SPOT peptide array binding signal intensity = 146
